molecular target: endogenous CD38 (A549 cells) (Homo sapiens, UniProt P28907); test: Endogenous CD38 NAD+ase activity in protein lysates from A549 cells
Sequence (P28907 whole entry): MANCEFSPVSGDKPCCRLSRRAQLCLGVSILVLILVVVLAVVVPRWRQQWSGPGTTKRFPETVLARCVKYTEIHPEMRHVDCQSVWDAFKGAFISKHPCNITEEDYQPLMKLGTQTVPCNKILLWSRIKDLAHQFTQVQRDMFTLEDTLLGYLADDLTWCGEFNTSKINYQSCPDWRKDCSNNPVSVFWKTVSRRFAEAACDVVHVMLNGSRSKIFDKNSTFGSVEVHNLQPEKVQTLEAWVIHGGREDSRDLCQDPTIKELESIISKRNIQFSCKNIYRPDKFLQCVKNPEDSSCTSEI
# Lookup of reported IC50 keyed by entry

compound | IC50 (µM)
O=c1cc(-c2ccc(O)cc2)oc2cc(O)cc(O)c12 [apigenin] | 14.8
O=c1c(O)c(-c2ccc(O)c(O)c2)oc2cc(O)cc(O)c12 [quercetin] | 16.4

====

biological target: recombinant human CD38 (Homo sapiens); assay: In vitro CD38 NAD+ase activity; assay type: biochemical
Sequence (P28907 43-300 limits assumed): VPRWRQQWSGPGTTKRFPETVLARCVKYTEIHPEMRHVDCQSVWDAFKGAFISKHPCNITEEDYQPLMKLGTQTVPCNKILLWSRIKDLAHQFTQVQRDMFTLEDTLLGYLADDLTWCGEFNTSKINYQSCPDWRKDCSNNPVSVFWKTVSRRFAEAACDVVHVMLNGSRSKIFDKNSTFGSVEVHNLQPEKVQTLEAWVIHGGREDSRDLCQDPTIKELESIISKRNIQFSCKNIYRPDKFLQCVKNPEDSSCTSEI

input_smiles | measurement_units | IC50
O=c1c(O)c(-c2ccc(O)c(O)c2)oc2cc(O)cc(O)c12 | µM | 13.8

====

biological target: recombinant human CD38 (Homo sapiens); experiment: In vitro CD38 ADP-ribosyl-cyclase activity; format: biochemical
measured_metric: IC50

molecule | assay_result
O=c1cc(-c2ccc(O)cc2)oc2cc(O)cc(O)c12 [apigenin] | 12.8 µM
